These measurements were taken from FireProtDB (doi:10.1021/bi060907v).

Recorded unfolding enthalpy (van 't Hoff) by entry
B1: Ribonuclease HII, O74035 (parent)
chain: MKIAGIDEAGRGPVIGPMVIAAVVVDENSLPKLEELKVRDSKKLTPKRREKLFNEILGVLDDYVILELPPDVIGSREGTLNEFEVENFAKALNSLKVKPDVIYADAADVDEERFARELGERLNFEAEVVAKHKADDIFPVVSAASILAKVTRDRAVEKLKEEYGEIGSGYPSDPRTRAFLENYYREHGEFPPIVRKGWKTLKKIAEKVESEKKAEERQATLDRYFRKV

Variants of: B1
particulars: Thermococcus kodakarensis (strain ATCC BAA-918 / JCM 12380 / KOD1); pH 9; Thermal; DSC; Gly-NaOH 20 mM; reversible: Yes; structure 1IO2; whole UniProt chain shown

[
  {
    "variant-label": "D7N",
    "unfolding enthalpy (van 't Hoff) / kcal/mol": 163
  },
  {
    "variant-label": "E8A",
    "unfolding enthalpy (van 't Hoff) / kcal/mol": 150
  },
  {
    "variant-label": "E8Q",
    "unfolding enthalpy (van 't Hoff) / kcal/mol": 163
  },
  {
    "variant-label": "D135A",
    "unfolding enthalpy (van 't Hoff) / kcal/mol": 153
  },
  {
    "variant-label": "D105A",
    "unfolding enthalpy (van 't Hoff) / kcal/mol": 162
  }
]
